# Tested on: LPS-treated rats
# Test description: Survival in a rat model for disseminated intravascular coagulation
# Type: in vivo
# Assay context: rats, 30 mg/kg LPS i.v.; 0.75 mg/kg bolus + infusion; 8 hours
Non-standard residues stand in square brackets, D forms with d. Residues, ends and D or L forms follow the SMILES beside them. dNMeChg = CN[C@@H](C(=O)O)C1CCCCC1; Aze = O=C(O)[C@@H]1CCN1
Outcome measure: Survival rate % (%)

{"Molecule": "CN[C@H](Cc1ccccc1)C(=O)N1CCC[C@H]1C(=O)N[C@H](C=O)CCCN=C(N)N [C, D-MePhe-Pro-Arg-H, reference compound]", "Tgt": "LPS-treated rats", "Unit name": "%", "Readout value": 27}
{"Molecule": "N=C(N)NCCC[C@@H](C=O)NC(=O)[C@@H]1CCCN1C(=O)[C@H](O)CC1CCCCCC1", "Tgt": "LPS-treated rats", "Unit name": "%", "Readout value": 92}
{"Molecule": "CN[C@@H](C(=O)N1CC[C@H]1C(=O)N[C@H](C=O)CCCNC(=N)N)C1CCCCC1 [Compound 4] (H-[dNMeChg]-[Aze]-Arg-aldehyde)", "Tgt": "LPS-treated rats", "Unit name": "%", "Readout value": 85}
{"Molecule": "CN[C@H](CC1CCCCCC1)C(=O)N1CCC[C@H]1C(=O)N[C@H](C=O)CCCNC(=N)N", "Tgt": "LPS-treated rats", "Unit name": "%", "Readout value": 50}
{"Molecule": "CCOC(=O)N[C@H](CC1CCCCCC1)C(=O)N1CCC[C@H]1C(=O)N[C@H](C=O)CCCNC(=N)N", "Tgt": "LPS-treated rats", "Unit name": "%", "Readout value": 70}

###

In what follows, each item is paired with its IC50 for plasmin (PL) (Homo sapiens, UniProt P00747).
Non-standard residues stand in square brackets, D forms with d. Residues, ends and D or L forms follow the SMILES beside them. dNMeChg = CN[C@@H](C(=O)O)C1CCCCC1; Aze = O=C(O)[C@@H]1CCN1
Outcome measure: IC50

{"Molecule": "CCOC(=O)N[C@H](CC1CCCCCC1)C(=O)N1CCC[C@H]1C(=O)N[C@H](C=O)CCCNC(=N)N [Compound 1]", "Readout value": "18 µM"}
{"Molecule": "CN[C@@H](C(=O)N1CC[C@H]1C(=O)N[C@H](C=O)CCCNC(=N)N)C1CCCCC1 [Compound 4] (H-[dNMeChg]-[Aze]-Arg-aldehyde)", "Readout value": "32 µM"}
{"Molecule": "N=C(N)NCCC[C@@H](C=O)NC(=O)[C@@H]1CCCN1C(=O)[C@H](O)C1CCCCCC1 [Compound C1, reference compound]", "Readout value": "83 µM"}
{"Molecule": "CN[C@H](Cc1ccccc1)C(=O)N1CCC[C@H]1C(=O)N[C@H](C=O)CCCN=C(N)N [C, D-MePhe-Pro-Arg-H, reference compound]", "Readout value": "54 µM"}
{"Molecule": "N=C(N)NCCC[C@@H](C=O)NC(=O)[C@@H]1CCCN1C(=O)[C@H](O)CC1CCCCCC1 [Compound 3]", "Readout value": "21 µM"}
{"Molecule": "CN[C@H](CC1CCCCCC1)C(=O)N1CCC[C@H]1C(=O)N[C@H](C=O)CCCNC(=N)N [Compound 2]", "Readout value": "16 µM"}
